System: N. gonorrhoeae MS11
measurement notes: Liquid broth MIC in Fastidious broth
condition details: Neisseria gonorrhoeae, MS11, read-out: Minimum Inhibitory Concentration (MIC), N. gonorrhoeae MS11
MIC for assorted compounds
reported metric: MIC

| compound | assay system | data value |
| --- | --- | --- |
| Cn1cccc(C(=O)N[C@H](C(=O)N[C@H]2Cc3cccc(C(=O)O)c3OB2O)c2ccc(P(=O)(O)O)cc2)c1=O (single isomer, unassigned) [Example 181] | N. gonorrhoeae MS11 | 4 to 8 µg/mL |
| CS(=O)(=O)N1CCN(C(=O)NC(C(=O)N[C@H]2Cc3cccc(C(=O)O)c3OB2O)c2ccc(P(=O)(O)O)c(F)c2O)C1=O (stereo partly drawn) [Example 48] | N. gonorrhoeae MS11 | 1 to 2 µg/mL |
| CS(=O)(=O)N1CCN(C(=O)N[C@@H](C(=O)N[C@H]2Cc3ccc(F)c(C(=O)O)c3OB2O)c2ccc(P(=O)(O)O)c(F)c2F)C1=O [Example 16] | N. gonorrhoeae MS11 | < 1 µg/mL |
| O=C(CN1CCN(C(=O)NC(C(=O)N[C@H]2Cc3ccc(F)c(C(=O)O)c3OB2O)c2cc(F)c(O)c(O)c2Cl)C(=O)C1=O)Nc1ccc(O)cc1 (stereo partly drawn) [Example 230] | N. gonorrhoeae MS11 | 4 to 8 µg/mL |
| O=C(NCCN1CCN(C(=O)N[C@@H](C(=O)N[C@H]2Cc3ccc(F)c(C(=O)O)c3OB2O)c2cc(F)c(O)c(O)c2Cl)C(=O)C1=O)Nc1ccncc1 [Example 221] | N. gonorrhoeae MS11 | 16 to 32 µg/mL |
| CN(CCN1CCN(C(=O)N[C@@H](C(=O)N[C@H]2Cc3ccc(F)c(C(=O)O)c3OB2O)c2cc(F)c(O)c(O)c2Cl)C(=O)C1=O)Cc1cccnc1 [Example 201] | N. gonorrhoeae MS11 | 16 to 32 µg/mL |
